Origin of values: patent US7485721B2

- protocol: Catalysis of O2^− dismutation, cytochrome c assay (xanthine/xanthine oxidase)
- Type: biochemical
- condition.info: 0.05 M phosphate buffer, pH 7.8, (25 ± 1) ° C.
// reported log kcat for each item listed
Could you respond with only the numeric value?

Study these solved cases before continuing.
cpd_smiles=CCCCCC[n+]1ccccc1-c1c2nc(c(-c3cccc[n+]3CCCCCC)c3ccc([nH]3)c(-c3cccc[n+]3CCCCCC)c3nc(c(-c4cccc[n+]4CCCCCC)c4ccc1[nH]4)C=C3)C=C2.[Mn+3] observation_type="log kcat" experimental_result=7.48
cpd_smiles=CCCC[n+]1ccccc1-c1c2nc(c(-c3cccc[n+]3CCCC)c3ccc([nH]3)c(-c3cccc[n+]3CCCC)c3nc(c(-c4cccc[n+]4CCCC)c4ccc1[nH]4)C=C3)C=C2.[Mn+3] observation_type="log kcat" experimental_result=7.25

C[n+]1ccccc1-c1c2nc(c(-c3cccc[n+]3C)c3ccc([nH]3)c(-c3cccc[n+]3C)c3nc(c(-c4cccc[n+]4C)c4ccc1[nH]4)C=C3)C=C2.[Mn+3] yielded log kcat of 7.79

The reported log kcat of the compound CCCCCCCC[n+]1ccccc1-c1c2nc(c(-c3cccc[n+]3CCCCCCCC)c3ccc([nH]3)c(-c3cccc[n+]3CCCCCCCC)c3nc(c(-c4cccc[n+]4CCCCCCCC)c4ccc1[nH]4)C=C3)C=C2.[Mn+3] was 7.71
